- system: Prostaglandin G/H synthase 2 (Homo sapiens) (UniProt P35354)
- Sequence (P35354 whole entry): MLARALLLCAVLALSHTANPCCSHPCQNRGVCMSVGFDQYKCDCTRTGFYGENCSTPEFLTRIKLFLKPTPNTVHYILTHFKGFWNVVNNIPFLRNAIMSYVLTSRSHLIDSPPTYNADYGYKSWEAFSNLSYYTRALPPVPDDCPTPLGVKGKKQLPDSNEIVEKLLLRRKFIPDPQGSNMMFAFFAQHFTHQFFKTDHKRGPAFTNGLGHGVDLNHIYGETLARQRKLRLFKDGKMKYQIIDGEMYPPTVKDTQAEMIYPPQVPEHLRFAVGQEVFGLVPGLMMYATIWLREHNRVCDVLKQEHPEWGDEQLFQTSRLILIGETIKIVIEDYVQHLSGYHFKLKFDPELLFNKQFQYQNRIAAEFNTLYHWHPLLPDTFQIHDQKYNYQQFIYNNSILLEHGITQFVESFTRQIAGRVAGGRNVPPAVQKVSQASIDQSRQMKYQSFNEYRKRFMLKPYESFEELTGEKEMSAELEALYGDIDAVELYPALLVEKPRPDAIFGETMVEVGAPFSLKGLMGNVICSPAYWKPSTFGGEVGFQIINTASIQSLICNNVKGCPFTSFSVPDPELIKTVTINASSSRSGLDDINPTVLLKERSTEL
- procedure_summary: Inhibition of COX2 at 50 uM
attribute_measured: inhibition
Report as: number unit

For the molecule CCCCC/C=C/C/C=C\CCCCCCCC(=O)OCC(O)CO (centres undefined) , the measured inhibition on Prostaglandin G/H synthase 2 (Homo sapiens) (UniProt P35354) was 20.5%

For the molecule CCCCCCCCCCCCCCCCCC(=O)OCC(O)CO (centres undefined) , the measured inhibition on Prostaglandin G/H synthase 2 (Homo sapiens) (UniProt P35354) was 16.5%

For the molecule CC/C=C/C/C=C/C/C=C/C/C=C\C/C=C/CCCCCC(=O)OCC(O)CO (centres undefined) , the measured inhibition on Prostaglandin G/H synthase 2 (Homo sapiens) (UniProt P35354) was 92.9%

For the molecule CCCCC/C=C\C/C=C\C/C=C\CCCCC(=O)OCC(O)CO (centres undefined) , the measured inhibition on Prostaglandin G/H synthase 2 (Homo sapiens) (UniProt P35354) was -6.5%

For the molecule CC/C=C/C/C=C/C/C=C\C/C=C/C/C=C/CCCC(=O)OCC(O)CO (centres undefined) , the measured inhibition on Prostaglandin G/H synthase 2 (Homo sapiens) (UniProt P35354) was 71.9%

For the molecule "CC/C=C/C/C=C/C/C=C\C/C=C/CCCCC(=O)OC[C@@H](O)CO" , the measured inhibition on Prostaglandin G/H synthase 2 (Homo sapiens) (UniProt P35354) was 35.6%

For the molecule CC/C=C/C/C=C/C/C=C/C/C=C\C/C=C/C/C=C/CCC(=O)OCC(O)CO (centres undefined) , the measured inhibition on Prostaglandin G/H synthase 2 (Homo sapiens) (UniProt P35354) was 74.2%

For the molecule CCCCCCCC/C=C\CCCCCCCC(=O)OCC(O)CO (centres undefined) , the measured inhibition on Prostaglandin G/H synthase 2 (Homo sapiens) (UniProt P35354) was 24.7%

For the molecule CCCCC/C=C/C/C=C/C/C=C\C/C=C/CCCCCC(=O)OCC(O)CO (centres undefined) , the measured inhibition on Prostaglandin G/H synthase 2 (Homo sapiens) (UniProt P35354) was 86.8%
